Test system: K12877-001-R-J1-PDC complex spheroid viability
Assay: Anticancer human tumor K12877-001-R-J1-PDC patient-derived lung adenocarcinoma cell line growth inhibition [RAS]
Settings: second compound 0.003 µM; first compound 1 µM; stronger effect = lower value
Source text: RAS pathway inhibitors in Combinations in Complex Spheroids A high-throughput screen of multi-cell type tumor spheroids was designed to identify active combinations of RAS pathway inhibitors and targeted small molecules. Complex spheroids include a stromal component modeled by human endothelial cells (HUVEC) and fibroblasts modeled by human mesenchymal stem cells (MSCs). […] Compounds. […] If the clinical Cmax for an agent had not been determined, the highest concentration tested was 10 microM. […]
Mark 1 (yes) only for viability, T/C values smaller than 60%; exact matches and larger values are 0 (no).

Incoming: A record lists NC1c2ccccc2OC12CCN(c1cnc3c(N4CCCc5ncccc54)n[nH]c3n1)CC2 (stereo not drawn) + CCn1c(-c2cc(N3CCN(C)CC3)cnc2C(C)OC)c2c3cc(ccc31)-c1csc(n1)CC(NC(=O)C1CC1C)C(=O)N1CCCC(N1)C(=O)OCC(C)(C)C2 . Is its viability, T/C below 60%?
Outgoing: 0 (no)

Incoming: A record lists CCC(CC)c1cc(NC2CCC(N)C2)n2nccc2n1 (stereo not drawn) + CCn1c(-c2cc(N3CCN(C)CC3)cnc2C(C)OC)c2c3cc(ccc31)-c1csc(n1)CC(NC(=O)C1CC1C)C(=O)N1CCCC(N1)C(=O)OCC(C)(C)C2 . Is its viability, T/C below 60%?
Outgoing: 0 (no)

Incoming: A record lists CCN1CCN(Cc2ccc(Nc3ncc(F)c(-c4cc(F)c5nc(C)n(C(C)C)c5c4)n3)nc2)CC1 + CCn1c(-c2cc(N3CCN(C)CC3)cnc2C(C)OC)c2c3cc(ccc31)-c1csc(n1)CC(NC(=O)C1CC1C)C(=O)N1CCCC(N1)C(=O)OCC(C)(C)C2 . Is its viability, T/C below 60%?
Outgoing: 1 (yes)

Incoming: A record lists CC(=O)OC12COC1CC(O)C1(C)C(=O)C(O)C3=C(C)C(OC(=O)C(O)C(NC(=O)OC(C)(C)C)c4ccccc4)CC(O)(C(OC(=O)c4ccccc4)C21)C3(C)C (stereo not drawn) + CCn1c(-c2cc(N3CCN(C)CC3)cnc2C(C)OC)c2c3cc(ccc31)-c1csc(n1)CC(NC(=O)C1CC1C)C(=O)N1CCCC(N1)C(=O)OCC(C)(C)C2 . Is its viability, T/C below 60%?
Outgoing: 1 (yes)

Incoming: A record lists CCN1CCN(Cc2ccc(Nc3ncc(F)c(-c4cc(F)c5nc(C)n(C(C)C)c5c4)n3)nc2)CC1 + CCn1c(-c2cccnc2C(C)OC)c2c3cc(ccc31)N1CCOC(CC(NC(=O)C(C(C)C)N(C)C(=O)C3(F)CCN(C(=O)C#CC(C)(C)N(C)C)CC3)C(=O)N3CCCC(N3)C(=O)OCC(C)(C)C2)C1 . Is its viability, T/C below 60%?
Outgoing: 1 (yes)

Incoming: A record lists Cc1nc(N2CCC3(CC2)COC(C)C3N)c(CO)nc1Sc1ccnc(N)c1Cl (stereo not drawn) + CCn1c(-c2cccnc2C(C)OC)c2c3cc(ccc31)N1CCOC(CC(NC(=O)C(C(C)C)N(C)C(=O)C3(F)CCN(C(=O)C#CC(C)(C)N(C)C)CC3)C(=O)N3CCCC(N3)C(=O)OCC(C)(C)C2)C1 . Is its viability, T/C below 60%?
Outgoing: 1 (yes)

Incoming: A record lists C=CC(=O)Nc1cc(Nc2nccc(-c3cn(C)c4ccccc34)n2)c(OC)cc1N(C)CCN(C)C + CCn1c(-c2cc(N3CCN(C)CC3)cnc2C(C)OC)c2c3cc(ccc31)-c1csc(n1)CC(NC(=O)C1CC1C)C(=O)N1CCCC(N1)C(=O)OCC(C)(C)C2 . Is its viability, T/C below 60%?
Outgoing: 0 (no)

----------
Provide the reported viability, T/C of each item.
tested on: K12877-001-R-J1-PDC complex spheroid viability; assay: Anticancer human tumor K12877-001-R-J1-PDC cell line growth inhibition [RAS]; conditions: second compound 0.3 µM; first compound 0.0316 µM; stronger effect = lower value;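 note: tumour cells co-cultured with HUVEC and mesenchymal stem cells in spheroids; spheroids exposed to agents for one week before readout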
Supply the numeric figure in %, leaving out any unit text.

get_value(item= O=C(c1ccc(F)c(F)c1Nc1ccc(I)cc1F)N1CC(O)([C@@H]2CCCCN2)C1 + CCn1c(-c2cc(N3CCN(C)CC3)cnc2C(C)OC)c2c3cc(ccc31)-c1csc(n1)CC(NC(=O)C1CC1C)C(=O)N1CCCC(N1)C(=O)OCC(C)(C)C2 , readout=viability, T/C) returns 54.8

get_value(item= CC(C)NCC(C(=O)N1CCN(c2ncnc3c2C(C)CC3O)CC1)c1ccc(Cl)cc1 (configuration not stated) + CCn1c(-c2cc(N3CCN(C)CC3)cnc2C(C)OC)c2c3cc(ccc31)-c1csc(n1)CC(NC(=O)C1CC1C)C(=O)N1CCCC(N1)C(=O)OCC(C)(C)C2 , readout=viability, T/C) returns 101

----------
Provide the reported viability, T/C of each item.
system: K12877-001-R-J1-PDC complex spheroid viability; experiment: Anticancer human tumor K12877-001-R-J1-PDC cell line growth inhibition [RAS]; conditions: second compound 0.000949 µM; first compound 0.3 µM; stronger effect = lower value;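 note: tumour cells co-cultured with HUVEC and mesenchymal stem cells in spheroids; spheroids exposed to agents for one week before readout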
Supply the numeric figure in %, leaving out any unit text.

get_value(item= CC1(C)CCC(Nc2ncc(C(F)(F)F)c(-c3c[nH]c4c(P(C)(C)=O)c(C#N)ccc34)n2)CN1 (centres undefined) + CCn1c(-c2cc(N3CCN(C)CC3)cnc2C(C)OC)c2c3cc(ccc31)-c1csc(n1)CC(NC(=O)C1CC1C)C(=O)N1CCCC(N1)C(=O)OCC(C)(C)C2 , readout=viability, T/C) returns 28

get_value(item= CCc1c2c(nc3ccc(O)cc13)-c1cc3c(c(=O)n1C2)COC(=O)[C@]3(O)CC + CCn1c(-c2cc(N3CCN(C)CC3)cnc2C(C)OC)c2c3cc(ccc31)-c1csc(n1)CC(NC(=O)C1CC1C)C(=O)N1CCCC(N1)C(=O)OCC(C)(C)C2 , readout=viability, T/C) returns 2.43

get_value(item= CC1(C)CCC(Nc2ncc(C(F)(F)F)c(-c3c[nH]c4c(P(C)(C)=O)c(C#N)ccc34)n2)CN1 (centres undefined) + CCn1c(-c2cccnc2C(C)OC)c2c3cc(ccc31)N1CCOC(CC(NC(=O)C(C(C)C)N(C)C(=O)C3(F)CCN(C(=O)C#CC(C)(C)N(C)C)CC3)C(=O)N3CCCC(N3)C(=O)OCC(C)(C)C2)C1 , readout=viability, T/C) returns 18.5

get_value(item= CCc1c2c(nc3ccc(O)cc13)-c1cc3c(c(=O)n1C2)COC(=O)[C@]3(O)CC + CCn1c(-c2cccnc2C(C)OC)c2c3cc(ccc31)N1CCOC(CC(NC(=O)C(C(C)C)N(C)C(=O)C3(F)CCN(C(=O)C#CC(C)(C)N(C)C)CC3)C(=O)N3CCCC(N3)C(=O)OCC(C)(C)C2)C1 , readout=viability, T/C) returns 1.41

----------
system: K12877-001-R-J1-PDC complex spheroid viability; assay: Anticancer human tumor K12877-001-R-J1-PDC cell line growth inhibition [RAS]; settings: compound 10 µM; stronger effect = lower value;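 note: tumour cells co-cultured with HUVEC and mesenchymal stem cells in spheroids; spheroids exposed to agents for one week before readout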
Provide the reported viability, T/C of each item.

get_value(item= `C[C@@H](NC(=O)c1ncnc(N)c1Cl)c1ncc(C(=O)Nc2cc(C(F)(F)F)c(Cl)cn2)s1` , readout=viability, T/C) returns 95.4% [middle of 4 runs]

get_value(item= C#Cc1c(F)ccc2cc(O)cc(-c3ncc4c(N5CC6CCC(C5)N6)nc(OCC56CCCN5CC(F)C6)nc4c3F)c12 (centres undefined) , readout=viability, T/C) returns 96.5% [middle of 8 runs]

get_value(item= NC1c2ccccc2OC12CCN(c1cnc3c(N4CCCc5ncccc54)n[nH]c3n1)CC2 (centres undefined) , readout=viability, T/C) returns 51.5% [middle of 4 runs]

get_value(item= CC1(O)CCCC1n1c(=O)c(C(F)F)cc2cnc(NC3CCN(S(C)(=O)=O)CC3)nc21 (centres undefined) , readout=viability, T/C) returns 3.53% [middle of 4 runs]

----------
system: K12877-001-R-J1-PDC complex spheroid viability; assay: Anticancer human tumor K12877-001-R-J1-PDC cell line growth inhibition [RAS]; conditions: second compound 0.1 µM; first compound 3.16 µM; stronger effect = lower value;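 note: tumour cells co-cultured with HUVEC and mesenchymal stem cells in spheroids; spheroids exposed to agents for one week before readout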
Provide the reported viability, T/C of each item.
Supply the numeric figure in %, leaving out any unit text.

Field viability, T/C (K12877-001-R-J1-PDC complex spheroid viability), entry CC(=O)OC12COC1CC(O)C1(C)C(=O)C(O)C3=C(C)C(OC(=O)C(O)C(NC(=O)OC(C)(C)C)c4ccccc4)CC(O)(C(OC(=O)c4ccccc4)C21)C3(C)C (configuration not stated) + C=CC(=O)N1CCN(c2nc(OCC3CCCN3C)nc3c(F)c(-c4nc(N)cc(C)c4C(F)(F)F)c(Cl)cc23)C(C)C1 : 5.42

Field viability, T/C (K12877-001-R-J1-PDC complex spheroid viability), entry CCC(CC)c1cc(NC2CCC(N)C2)n2nccc2n1 (configuration not stated) + C#Cc1c(F)ccc2cc(O)cc(-c3ncc4c(N5CC6CCC(C5)N6)nc(OCC56CCCN5CC(F)C6)nc4c3F)c12 : 2.62
